- ASSAY SYSTEM: Tau
- METHOD SUMMARY: rat primary cortical neurons, FLIPR, 25 uM ASO
Bases are written 5' to 3'; sugars and linkages follow in the same order, as letters with counts (s phosphorothioate, o phosphodiester; PS: all linkages phosphorothioate). The collection does not say whether C is 5-methylated. l = locked nucleic acid (LNA); d = 2'-deoxy (DNA)
PROPERTY MEASURED: calcium oscillation score

- CTTAATTTCACCCTCA (sugars l3 d10 l3, PS): 40.3 % of control
- TCCCACCATCCACGCTC (sugars l2 d13 l2, PS): 64.7 % of control
- CCTTAAAGCTCCAACA (sugars l4 d10 l2, PS): 94.6 % of control
- GGCCACCTCCTGGTTTATGA (sugars l3 d14 l3, PS): 0 % of control
- CTCTTCCACTACAAGC (sugars l3 d11 l2, PS): 46.2 % of control
- AAGCATTTCAAGATAC (sugars l3 d10 l3, PS): 66.7 % of control
